B1: EMD (parent)
chain: YQSKGYNDDYYEESYFTTRTYGEP

Variants of: B1
Assay: protein stability index of a GFP-peptide fusion (GPS, HEK-293T) (PSI 1-6); higher = more stable;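 also: lentivirally expressed fusions sorted by FACS into six bins by GFP to DsRed ratio, PSI derived from sequencing read proportions per bin multiplied by bin number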
Conditions: c terminus: a fixed tail appended
Returns 1 if the recorded protein stability index is greater than or equal to 2, and -1 otherwise.

>>> class_assignment("YQSKGYNDDYYEESYFTTRTYQEP")
1
>>> class_assignment("YQSQGYNDDYYEESYFTTRTYGEP")
1
>>> class_assignment("YQSKGYNDDYYEESYFTSRTYGEP")
1
>>> class_assignment("YQSKGYNDDYYEESYFTTRTSGEP")
1
>>> class_assignment("YQSKGYNDDYYEWSYFTTRTYGEP")
-1
>>> class_assignment("YQSKGYNDTYYEESYFTTRTYGEP")
-1
>>> class_assignment("YQSKGYNDDYYECSYFTTRTYGEP")
-1
>>> class_assignment("YQSKGYVDDYYEESYFTTRTYGEP")
1
>>> class_assignment("YQSKGYNDDYYEESYFTTRTYWEP")
-1
>>> class_assignment("YCSKGYNDDYYEESYFTTRTYGEP")
1
>>> class_assignment("YQSKGYNDDYYEESYFTTRTYNEP")
1
>>> class_assignment("YQSKGYNDDYYEESYITTRTYGEP")
1
>>> class_assignment("YQSKGYNDDYYEISYFTTRTYGEP")
-1
>>> class_assignment("YQSKGYNDYYYEESYFTTRTYGEP")
-1
>>> class_assignment("YQSKGYNDDYYEESSFTTRTYGEP")
1
>>> class_assignment("YQSKGYNDDLYEESYFTTRTYGEP")
1
>>> class_assignment("YQSKGYNDDYYEESYMTTRTYGEP")
1
>>> class_assignment("YQSKGYIDDYYEESYFTTRTYGEP")
-1
>>> class_assignment("NQSKGYNDDYYEESYFTTRTYGEP")
1
>>> class_assignment("RQSKGYNDDYYEESYFTTRTYGEP")
1
